organism: Rattus norvegicus; assay: Open TG-GATES - Regimen: Daily Repeat; format: toxicity, organism-based, Sprague-Dawley; set-up: regimen Daily Repeat, gender Male, age 6 weeks; conditions: in vivo, po, 0 mg/kg, […], tissue Plasma, route gavage, dose level Control, time 28 day
# TC annotations
Numbers only here, please. The scale is mg/dL.

Recorded results for 4 compounds are shown here.
compound="ClC(Cl)(Cl)Cl [CARBON TETRACHLORIDE]" property=TC test_result=72.4
compound="CC1=C(CC(=O)O)c2cc(F)ccc2/C1=C\\c1ccc([S+](C)[O-])cc1 (stereo not given)" property=TC test_result=57.4
compound="CN(C)CCC=C1c2ccccc2COc2ccccc21 [DOXEPIN]" property=TC test_result=80.2
compound="CC[C@H]1[C@@H]2C[C@H]3[C@@H]4N(C)c5ccccc5[C@]45C[C@@H]([C@@H]2[C@H]5O)N3[C@@H]1O [AJMALINE]" property=TC test_result=62.6

Task: Need TC of CCCCc1oc2ccccc2c1C(=O)c1cc(I)c(OCCN(CC)CC)c(I)c1 [AMIODARONE] , thanks.
Output: 67

Task: What does the data say about its TC? Entry: CCC1(c2ccccc2)C(=O)NC(=O)NC1=O [PHENOBARBITAL]
Output: 76.4

Task: Look up TC for this compound: OCCOCCN1CCN(C(c2ccccc2)c2ccc(Cl)cc2)CC1 (stereo not given) [HYDROXYZINE]
Output: 68.2

Task: Param item = CC(C)N(CCC(C(N)=O)(c1ccccc1)c1ccccn1)C(C)C (stereo not given) [DISOPYRAMIDE] ; retrieve measured TC.
Output: 70.6

Task: I am curious: what TC value has been reported for O=NN(CCCl)C(=O)NC1CCCCC1 [LOMUSTINE] ?
Output: 71

Task: Bench note: what TC did CCc1oc2ccccc2c1C(=O)c1cc(Br)c(O)c(Br)c1 [BENZBROMARONE] show?
Output: 70.4
